quantity: Solubility at pH 7

A selection of reference data follows.
{"columns": ["molecule", "quantity", "result.value"],
 "data": [
  ["Nc1ccc(S)cc1", "Solubility at pH 7", "Very soluble"],
  ["Sc1ccccn1", "Solubility at pH 7", "Soluble"],
  ["COc1ccc(S)cc1", "Solubility at pH 7", "Slightly soluble"],
  ["O=C(O)Cc1ccc(S)cc1", "Solubility at pH 7", "Very soluble"],
  ["O=S(=O)([O-])CCS.[Na+] [MESNA, sodium 2-mercaptoethanesulfonate]", "Solubility at pH 7", "Very soluble"]
]}

Entry "O=C(O)c1cccc(S)c1" ; Solubility at pH 7 = Very soluble

Documented Solubility at pH 7 of "Sc1ccccc1" : Slightly soluble

So, "Oc1ccc(S)cc1" ? Its Solubility at pH 7 was Soluble

So for "O=[N+]([O-])c1ccc(S)cc1" , the logged Solubility at pH 7 turned out to be Soluble

// Solubility at pH 7 value for "Oc1cccc(S)c1" : Very soluble

Summary for this molecule, "Sc1ncccn1" : Solubility at pH 7 is Very soluble

---

method.description: physchem
quantity: pKa

{"columns": ["molecule", "pKa"],
 "data": [
  ["O=S(=O)([O-])CCS.[Na+] [MESNA, sodium 2-mercaptoethanesulfonate]", 9.08]
]}

I = Oc1ccc(S)cc1
II = Sc1ncccn1
q: Consider entries I and II . Which has the numerically lower pKa? Could you answer with the label of the item you picked?
a: II

---

Reported values of pKa for individual entries
method.description: pKa of thiol catalysts (Table 3)
Returns: the value as a bare number; no unit string appended.

{"columns": ["cpd.smiles", "pKa"],
 "data": [
  ["SCc1ccccc1", 9.67]
]}

Short answer for "Sc1ccc(Cl)cc1" : pKa was 6.11

---

method.description: physchem
quantity: pKa

{"columns": ["cpd.smiles", "result.value"],
 "data": [
  ["Cc1ccc(S)cc1", 6.8],
  ["Sc1ccccn1", -1.07],
  ["Nc1ccc(S)cc1", 8.86],
  ["Oc1cccc(S)c1", 6.5],
  ["O=C(O)c1cccc(S)c1", 5.78],
  ["COc1ccc(S)cc1", 6.75]
]}

# credit: patent US7674881B2
